molecular target: LTA4H (Homo sapiens); experiment: Isothermal titration calorimetry with LTA4H; type: binding; design: made in house; host or cells: Escherichia coli JM101; details: dissociation constant (Kd) by ITC, 25 mM Tris pH 7.8, 3% DMSO, 25 °C; mean ± SEM, n = 4
Sequence (P09960 whole entry): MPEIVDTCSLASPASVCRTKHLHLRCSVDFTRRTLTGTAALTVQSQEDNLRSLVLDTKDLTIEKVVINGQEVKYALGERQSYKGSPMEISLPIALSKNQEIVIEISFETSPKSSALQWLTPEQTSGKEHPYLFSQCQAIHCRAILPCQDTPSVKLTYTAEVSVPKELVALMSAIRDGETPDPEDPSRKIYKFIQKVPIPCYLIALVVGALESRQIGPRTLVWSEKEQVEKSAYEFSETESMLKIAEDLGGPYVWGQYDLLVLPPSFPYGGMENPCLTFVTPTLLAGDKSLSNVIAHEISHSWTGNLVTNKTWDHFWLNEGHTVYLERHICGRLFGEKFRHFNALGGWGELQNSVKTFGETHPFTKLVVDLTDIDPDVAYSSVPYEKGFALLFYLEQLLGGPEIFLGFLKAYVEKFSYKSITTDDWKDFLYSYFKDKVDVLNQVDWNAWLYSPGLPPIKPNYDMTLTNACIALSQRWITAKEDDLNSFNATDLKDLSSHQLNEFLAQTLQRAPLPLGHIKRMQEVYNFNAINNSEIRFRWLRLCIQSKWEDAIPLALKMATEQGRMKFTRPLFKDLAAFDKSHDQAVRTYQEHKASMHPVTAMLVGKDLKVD
pKd: −log10 of the molar value.
recorded_endpoint: pKd

>>> measured_result("Nc1nc(-c2ccc(Cc3ccccc3)cc2)c[se]1")
6.44

###

target: UniProt:P09960; assay: Peptidase assay of LTA4H with pNa and AMC conjugates; format: biochemical; parameters: made in house; host or cells: Escherichia coli JM101; details: IC50, peptidase activity with L-Arg-pNa, 1 mM L-Arg-pNa
recorded_endpoint: IC50 (nM)

>>> measured_result("Nc1nc(-c2ccc(Cc3ccccc3)cc2)c[se]1")
490
